Measured Solubility in Methanol of individual entries
- protocolNotes: Measurement of Solubility in various kinds of polar solvents
- Assay type: physicochemical
- assayConditions: solvent: Methanol
metricName: Solubility in Methanol (g)

molecule=CC(C)(N=NC(C)(C)C(=O)NCCO)C(=O)NCCO censoringoperator== recordedvalue=4.55
molecule=CC[C@H](CO)NC(=O)C(C)(C)N=NC(C)(C)C(=O)N[C@H](CC)CO censoringoperator=> recordedvalue=10
molecule="CC(CO)NC(=O)C(C)(C)N=NC(C)(C)C(=O)NC(C)CO (racemic)" censoringoperator== recordedvalue=6.5
molecule=CC(CO)(CO)NC(=O)C(C)(C)N=NC(C)(C)C(=O)NC(C)(CO)CO censoringoperator== recordedvalue=5.18
molecule=CC(C)(N=NC(C)(C)C(=O)NC(CO)(CO)CO)C(=O)NC(CO)(CO)CO censoringoperator== recordedvalue=1.89

###

- protocolNotes: Measurement of Solubility in various kinds of polar solvents
- Assay type: physicochemical
- assayConditions: solvent: Tetrahydrofuran
metricName: Solubility in Tetrahydrofuran

compound=CC(C)(N=NC(C)(C)C(=O)NCCO)C(=O)NCCO recordedvalue=insoluble
compound=CC[C@H](CO)NC(=O)C(C)(C)N=NC(C)(C)C(=O)N[C@H](CC)CO recordedvalue="> 10 g"
compound="CC(CO)NC(=O)C(C)(C)N=NC(C)(C)C(=O)NC(C)CO (racemic)" recordedvalue="0.3 g"
compound=CC(C)(N=NC(C)(C)C(=O)NC(CO)(CO)CO)C(=O)NC(CO)(CO)CO recordedvalue=insoluble
compound=CC(CO)(CO)NC(=O)C(C)(C)N=NC(C)(C)C(=O)NC(C)(CO)CO recordedvalue=insoluble

###

- protocolNotes: Measurement of Solubility in various kinds of polar solvents
- Type: physicochemical
- assayConditions: solvent: 2-butanol
metricName: Solubility in 2-butanol

compound=CC(C)(N=NC(C)(C)C(=O)NC(CO)(CO)CO)C(=O)NC(CO)(CO)CO recordedvalue=insoluble
compound=CC[C@H](CO)NC(=O)C(C)(C)N=NC(C)(C)C(=O)N[C@H](CC)CO recordedvalue="> 10 g"
compound="CC(CO)NC(=O)C(C)(C)N=NC(C)(C)C(=O)NC(C)CO (racemic)" recordedvalue="< 0.l"
compound=CC(CO)(CO)NC(=O)C(C)(C)N=NC(C)(C)C(=O)NC(C)(CO)CO recordedvalue=insoluble
compound=CC(C)(N=NC(C)(C)C(=O)NCCO)C(=O)NCCO recordedvalue=insoluble

###

- protocolNotes: Measurement of Solubility in various kinds of polar solvents
- Assay type: physicochemical
- assayConditions: solvent: Acetone
metricName: Solubility in Acetone

compound="CC[C@H](CO)NC(=O)C(C)(C)N=NC(C)(C)C(=O)N[C@H](CC)CO [Present compound 1]" recordedvalue="> 10 g"
compound="CC(C)(N=NC(C)(C)C(=O)NC(CO)(CO)CO)C(=O)NC(CO)(CO)CO [Known compound 2]" recordedvalue=insoluble
compound="CC(C)(N=NC(C)(C)C(=O)NCCO)C(=O)NCCO [Known compound 1]" recordedvalue=insoluble
compound="CC(CO)(CO)NC(=O)C(C)(C)N=NC(C)(C)C(=O)NC(C)(CO)CO [Known compound 3]" recordedvalue=insoluble
compound="CC(CO)NC(=O)C(C)(C)N=NC(C)(C)C(=O)NC(C)CO (racemic) [Present compound 2]" recordedvalue="0.3 g"
